Target chain: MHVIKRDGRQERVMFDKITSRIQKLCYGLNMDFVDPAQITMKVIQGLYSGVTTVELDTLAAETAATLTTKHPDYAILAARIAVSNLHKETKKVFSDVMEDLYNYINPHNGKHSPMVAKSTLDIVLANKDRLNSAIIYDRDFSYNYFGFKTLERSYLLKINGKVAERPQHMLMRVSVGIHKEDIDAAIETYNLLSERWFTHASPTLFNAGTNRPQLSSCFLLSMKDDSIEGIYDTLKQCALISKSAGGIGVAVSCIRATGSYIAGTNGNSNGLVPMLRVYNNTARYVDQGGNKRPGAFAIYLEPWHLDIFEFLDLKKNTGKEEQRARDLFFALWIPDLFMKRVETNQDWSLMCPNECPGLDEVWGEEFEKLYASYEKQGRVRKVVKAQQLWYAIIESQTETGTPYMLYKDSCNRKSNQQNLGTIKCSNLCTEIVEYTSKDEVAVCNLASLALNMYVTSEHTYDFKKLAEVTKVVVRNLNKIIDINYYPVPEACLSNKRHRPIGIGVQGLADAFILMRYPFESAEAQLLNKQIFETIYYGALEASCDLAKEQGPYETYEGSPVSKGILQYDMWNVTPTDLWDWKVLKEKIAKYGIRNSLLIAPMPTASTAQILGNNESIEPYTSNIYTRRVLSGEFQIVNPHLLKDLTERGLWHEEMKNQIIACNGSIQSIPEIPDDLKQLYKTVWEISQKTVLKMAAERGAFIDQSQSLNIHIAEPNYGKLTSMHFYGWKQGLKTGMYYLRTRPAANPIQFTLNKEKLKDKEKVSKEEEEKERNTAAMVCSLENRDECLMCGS
Recorded endpoint: IC50 (nM)

Compound	Recorded endpoint	Assay value
[2H]C([2H])([2H])C1(O)CCOc2c(S(=O)(=O)N[C@H](c3n[nH]c(=O)o3)[C@H](C)c3c(F)ccc(Cl)c3C)ccc(Cl)c21 (single isomer, unassigned) [Example 228B]	IC50	140

A = Cc1ccc(F)c([C@@H](C)[C@H](NS(=O)(=O)c2ccc(Cl)c(C(C)(C)O)n2)c2n[nH]c(=O)o2)c1C
B = Cc1ccc(F)c([C@@H](C)[C@H](NS(=O)(=O)c2ccc(Cl)c3c2OCC(=O)N3CCO)c2n[nH]c(=O)o2)c1C
Inquiry: Please let me know which one, A or B , has a lower measured IC50 value. Kindly state the label of the option you pick.
Reply text: A
(A: 90 nM, B: 130 nM)
